Biological target: Major prion protein (Mus musculus)
Assay: Inhibition of manganese-induced aggregation in mouse recombinant PrP assessed as PrP-res formation at 100 uM after 30 mins relative to control
Parameters: scale not given: the % may be the effect or the level left
Peptide text beside a SMILES is read from it.
Activity less than 50% is rule met; Activity greater than or equal to 50% is rule not met.

Worked examples, 2 compounds total:
{"COMPOUND": "NC(=O)CNC(=O)[C@@H]1CCCN1C(=O)[C@@H]1CCCN1 (H-Pro-Pro-Gly-NH2)", "CATEGORY_LABEL": "rule not met"}
{"COMPOUND": "C[C@H](NC(=O)CNC(=O)[C@H](C)NC(=O)[C@@H](C)N)C(=O)N[C@@H](C)C(=O)N[C@@H](C)C(=O)N1CCC[C@H]1C(=O)NCC(N)=O", "CATEGORY_LABEL": "rule met"}

Dear colleague, could you confirm whether Activity of C[C@H](NC(=O)[C@H](C)NC(=O)[C@@H]1CCCN1)C(N)=O (H-Pro-Ala-Ala-NH2) falls below 50%? Thanks.
rule not met

Dear colleague, could you confirm whether Activity of NCC(=O)N1CCC[C@H]1C(=O)N1CCC[C@H]1C(N)=O (H-Gly-Pro-Pro-NH2) falls below 50%? Thanks.
rule not met

Dear colleague, could you confirm whether Activity of CC(C)[C@H](NC(=O)[C@H](C)NC(=O)CNC(=O)[C@H](C)NC(=O)[C@H](C)NC(=O)[C@H](C)NC(=O)[C@H](C)NC(=O)[C@@H]1CCCN1C(=O)[C@H](C)NC(=O)[C@@H](C)N)C(N)=O falls below 50%? Thanks.
rule met

Dear colleague, could you confirm whether Activity of CC(C)[C@H](NC(=O)[C@@H](NC(=O)[C@H](C)NC(=O)CNC(=O)[C@H](C)NC(=O)[C@H](C)NC(=O)[C@H](C)NC(=O)[C@H](C)NC(=O)[C@@H]1CCCN1C(=O)[C@H](C)NC(=O)[C@@H](C)N)C(C)C)C(N)=O falls below 50%? Thanks.
rule met

Dear colleague, could you confirm whether Activity of CC(C)[C@H](NC(=O)[C@@H](NC(=O)[C@H](C)NC(=O)CNC(=O)[C@@H]1CCCN1C(=O)[C@H](C)NC(=O)[C@H](C)NC(=O)[C@H](C)NC(=O)CNC(=O)[C@H](C)NC(=O)[C@@H](C)N)C(C)C)C(N)=O falls below 50%? Thanks.
rule not met

Dear colleague, could you confirm whether Activity of C[C@H](NC(=O)CNC(=O)[C@@H]1CCCN1C(=O)[C@H](C)NC(=O)[C@H](C)NC(=O)[C@H](C)NC(=O)CNC(=O)[C@H](C)NC(=O)[C@@H](C)N)C(N)=O falls below 50%? Thanks.
rule met

###

Target: Major prion protein (Mus musculus)
Test: Inhibition of mouse recombinant PrP interaction with scrapie mouse brain PrP-res assessed as PrP-res formation at 100 uM after 30 mins by aggregation assay relative to control
Parameter PrP-res formation relative to control: see the listing below.
Numeric only. Scale: %

Consider the following illustrative entries.
{"SMILES_NOTATION": "CC(C)[C@H](NC(=O)[C@@H](NC(=O)[C@H](C)NC(=O)CNC(=O)[C@@H]1CCCN1C(=O)[C@H](C)NC(=O)[C@H](C)NC(=O)[C@H](C)NC(=O)CNC(=O)[C@H](C)NC(=O)[C@@H](C)N)C(C)C)C(N)=O", "METRIC": "PrP-res formation relative to control", "NUMERIC_VALUE": 52}
{"SMILES_NOTATION": "C[C@H](NC(=O)CNC(=O)[C@H](C)NC(=O)[C@@H](C)N)C(=O)N[C@@H](C)C(=O)N[C@@H](C)C(=O)N1CCC[C@H]1C(=O)NCC(N)=O", "METRIC": "PrP-res formation relative to control", "NUMERIC_VALUE": 2}
{"SMILES_NOTATION": "CC(C)[C@H](NC(=O)[C@@H](NC(=O)[C@H](C)NC(=O)CNC(=O)[C@H](C)NC(=O)[C@H](C)NC(=O)[C@H](C)NC(=O)[C@H](C)NC(=O)[C@@H]1CCCN1C(=O)[C@H](C)NC(=O)[C@@H](C)N)C(C)C)C(N)=O", "METRIC": "PrP-res formation relative to control", "NUMERIC_VALUE": 22}
{"SMILES_NOTATION": "C[C@H](NC(=O)[C@H](C)NC(=O)[C@H](C)NC(=O)[C@H](C)NC(=O)[C@@H]1CCCN1C(=O)[C@H](C)NC(=O)[C@@H](C)N)C(=O)NCC(N)=O", "METRIC": "PrP-res formation relative to control", "NUMERIC_VALUE": 46}

Please provide the recorded PrP-res formation relative to control for C[C@H](NC(=O)[C@H](C)NC(=O)[C@H](C)NC(=O)[C@H](C)NC(=O)[C@@H]1CCCN1C(=O)[C@H](C)NC(=O)[C@@H](C)N)C(N)=O , tested on Major prion protein (Mus musculus).
2
